- protocol-summary: Hemolytic activity in male Sprague-Dawley rat erythrocytes assessed as concentration required for 50% hemolysis incubated for 1 hr by absorbance based method
- Assay type: toxicity, cell-based, Erythrocyte
Non-standard residues stand in square brackets, D forms with d. Residues, ends and D or L forms follow the SMILES beside them. *: point of attachment. X1 = NC(=O)[C@H](Cc1c[nH]cn1)NC(=O)CNC(=O)[C@@H](N)CN*; Nspe = C[C@H](NCC(=O)O)c1ccccc1; Nphe = O=C(O)CNCc1ccccc1; Nlys = NCCCCNCC(=O)O
property: HC50 at 1 h

compound: C[C@@H](c1ccccc1)N(CC(=O)NC[C@H](N)C(=O)NCC(=O)N[C@@H](Cc1c[nH]cn1)C(N)=O)C(=O)CN(CCCCN)C(=O)CN(C(=O)CN(C(=O)CN(CCCCN)C(=O)CN(C(=O)CN(C(=O)CN(CCCCN)C(=O)CN(C(=O)CN(C(=O)CNCCCCN)[C@@H](C)c1ccccc1)[C@@H](C)c1ccccc1)[C@@H](C)c1ccccc1)[C@@H](C)c1ccccc1)[C@@H](C)c1ccccc1)[C@@H](C)c1ccccc1 (H-[Nlys][Nspe][Nspe][Nlys][Nspe][Nspe][Nlys][Nspe][Nspe][Nlys][Nspe]-X1)
HC50 at 1 h: > 100 µM

Okay, now this compound:
If you can, please state the reported HC50 at 1 h value of C[C@@H](c1ccccc1)N(CC(=O)N(CC(=O)N(CCCCN)CC(=O)N(CC(=O)N(CC(=O)N(CCCCN)CC(=O)N(CC(=O)N(CC(=O)N(CCCCN)CC(=O)N(CC(=O)N(CC(N)=O)Cc1ccccc1)Cc1ccccc1)Cc1ccccc1)Cc1ccccc1)Cc1ccccc1)Cc1ccccc1)Cc1ccccc1)C(=O)CN(CCCCN)C(=O)CNC(=O)[C@H](Cc1c[nH]cn1)NC(=O)CNC(=O)CN (H-GGHG[Nlys][Nspe][Nphe][Nlys][Nphe][Nphe][Nlys][Nphe][Nphe][Nlys][Nphe][Nphe]-NH2) .
> 100 µM
